Test system: M14 melanoma
Test: NCI-60 one-dose screen, 48 h
Details: 10 µM unless noted
About 83,000 compounds went through this panel and 20% of them were active in at least one assay; those are over-represented in the sample as a whole. Calls of active or inactive are those of the source. How the source made its calls: active means growth percent below 10; inactive means the rest.
Pick from active, inactive when you respond.

O=C1Nc2ccccc2/C1=C/c1ccc(OCC(=O)c2ccccc2)cc1	inactive
O=S(=O)(Oc1ccc(-c2cn3ccsc3n2)cc1)c1cccc(C(F)(F)F)c1	inactive
CN(C)S(=O)(=O)c1ccc(-c2nc(C(Cl)Cl)nc3cc(-c4ccc(F)cc4)nn23)cc1	active
O=C(CCCCCCNC(=O)c1csc(Br)n1)NO	inactive
Cc1ccc(-c2cc3nc(C(Cl)Cl)nc(-c4ccc(S(=O)(=O)N(C)C)cc4)n3n2)cc1	inactive
Nc1cc(C(=O)N/N=C\c2ccc(OC(F)F)c(OC3CCCC3)c2)nn1CC(O)c1ccccc1 (stereo not given)	inactive
CC(=O)Nc1cc(N2CCOCC2)c2nc(NC(=O)c3[nH]c(C)c(Cl)c3Cl)sc2c1	inactive
CN(C)c1ccc(/C=N/Nc2nc(N/N=C/c3ccc(N(C)C)cc3)nc(N3CCCCC3)n2)cc1	inactive
COC(=O)CCSC1=C(C)C(=O)c2ccccc2C1=O	inactive

Consider the additional compound presented here.
q: What did this assay record as the result for `C#CCOc1ccc(-c2csc(NC(=O)C=C)n2)cc1NS(=O)(=O)c1cccc2c(N(C)C)cccc12` ?
a: inactive

Taken from PubChem BioAssay (NCI).
